The compounds listed here are annotated with their GI50.
test system: SF-295; assay: NCI tumour cell line growth inhibition, 48 h
The source made the active and inactive calls. Rule as the data show it: active = GI50 up to about 1.1 µM and inactive = higher.

- COMPOUND: "O=C(O)CCCc1ccc2c(c1)CC1(C2)Cc2cc3c(cc2C1)CCCC3"
  GI50: "23.9 µM (inactive)"
- COMPOUND: "Cc1cccc(-n2c(C)nc3ccc(NC(=S)Nc4ccccc4)cc3c2=O)c1"
  GI50: "> 100 µM (inactive)"
- COMPOUND: "CCCN(CCC)c1cc2c(cc1F)c(=O)c(C(=O)O)cn2-c1ccc(N2CCN(C)CC2)cn1"
  GI50: "17.8 µM (inactive)"
- COMPOUND: "CN(C)c1ncnc2c1ncn2C1C=CC(COS(N)(=O)=O)C1 (stereo not given)"
  GI50: "> 100 µM (inactive)"
- COMPOUND: "NC(=S)N/N=C1\\C(=O)C=C(Nc2ccc(Cl)cc2Cl)c2ccccc21"
  GI50: "12.8 µM (inactive)"
- COMPOUND: "CCn1c(-c2ccc(F)cc2)nc2c1C(=O)c1ccccc1C2=O"
  GI50: "> 100 µM (inactive)"
- COMPOUND: "COc1ccc(N2C(=O)[C@H]3CC(C)c4c([nH]c5ccccc45)[C@H]3C2=O)cc1 (stereo not given in full)"
  GI50: "1.74 µM (inactive)"
- COMPOUND: "O=C1NC(=O)/C(=C/c2ccc(S(=O)(=O)N/N=C/c3ccc(Cl)cc3)cc2)N1"
  GI50: "> 100 µM (inactive)"
- COMPOUND: "N#CCCN(c1ccc(C=O)cc1)S(=O)(=O)c1ccccc1"
  GI50: "> 100 µM (inactive)"
- COMPOUND: "CCN(CC)CCC(=O)c1ccc(Oc2ccccc2)cc1"
  GI50: "55.3 µM (inactive)"

* * *

The compounds listed here are annotated with their GI50.
system: A498; test: NCI tumour cell line growth inhibition, 48 h
Active and inactive are the calls of the source. Cut-off read from the data, not from the text of the source: active = GI50 up to about 1.1 µM and inactive = higher.
REPORTED METRIC: GI50

- COMPOUND: "CC1CC[C@@]2(OC1)O[C@H]1C[C@H]3[C@@H]4CC[C@H]5C[C@@H](OC6OC(CO)C(OC7OC(CO)C(OC8OC(CO)C(O)C(OC9OC(C)C(OC%10OC(C)C(O)C(O)C%10O)C(O)C9O)C8OC8OCC(O)C(O)C8O)C(O)C7O)C(O)C6O)CC[C@]5(C)[C@H]4CC(=O)[C@]3(C)[C@H]1[C@@H]2C (some centres undefined)"
  REPORTED METRIC: "GI50"
  VAL: "18.2 µM (inactive)"
- COMPOUND: "CC(C)C(=O)/C=C/c1ccc(Cl)cc1"
  REPORTED METRIC: "GI50"
  VAL: "> 10 µM (inactive)"
- COMPOUND: "O=C(Nc1ccc(C(F)(F)F)cc1[N+](=O)[O-])C(=O)C(C(=O)c1ccc2ccccc2c1)C1OC(=O)c2ccccc21 (centres undefined)"
  REPORTED METRIC: "GI50"
  VAL: "4.09 µM (inactive)"
- COMPOUND: "COc1cc(S(=O)(=O)Nc2ccc(-c3csc(N4C(=O)C(C)SC4c4cccs4)n3)cc2)ccc1Cl (centres undefined)"
  REPORTED METRIC: "GI50"
  VAL: "> 100 µM (inactive)"
- COMPOUND: "COc1ccc(OC)c([N+](=O)[O-])c1-c1nc2sc(Cl)cn2c1/C=N/N=C(N)N"
  REPORTED METRIC: "GI50"
  VAL: "14.1 µM (inactive)"
- COMPOUND: "O=S(=O)(c1ccccc1)N1CCCC(c2ccccc2)CC1 (centres undefined)"
  REPORTED METRIC: "GI50"
  VAL: "49 µM (inactive)"
- COMPOUND: "O=C(O)CCCc1ccc2c(c1)CC1(C2)Cc2cc3c(cc2C1)CCCC3"
  REPORTED METRIC: "GI50"
  VAL: "17.1 µM (inactive)"
- COMPOUND: "CC(C)=C[C@H]1CCC2(OCCO2)[C@]1(C)CO"
  REPORTED METRIC: "GI50"
  VAL: "> 100 µM (inactive)"
- COMPOUND: "Cn1c(=O)nc2n(-c3ccc(Cl)cc3)c3ccc(Cl)cc3nc-2c1=O"
  REPORTED METRIC: "GI50"
  VAL: "5.58 µM (inactive)"
